Biological target: papain (Carica papaya)
Construct: purchased Sigma Chemical Co
Sequence (P00784 134-345): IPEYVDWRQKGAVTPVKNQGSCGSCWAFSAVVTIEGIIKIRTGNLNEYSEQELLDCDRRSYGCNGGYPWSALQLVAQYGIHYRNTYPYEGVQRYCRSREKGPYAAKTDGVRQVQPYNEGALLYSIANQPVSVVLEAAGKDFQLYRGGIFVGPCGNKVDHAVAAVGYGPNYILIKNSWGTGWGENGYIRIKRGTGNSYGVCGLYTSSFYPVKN
Assay: Inhibitory Activity Against Papain
Assay type: biochemical
Details: pH 6.8, 40° C., preincubated 3 minutes, incubation 10 minutes, substrate benzyloxycarbonyl-L-phenylalanyl-L-arginine 4-methylcoumaryl-7-amide; read-out: Inhibitory Activity Value [IC50 (nM)] Papain
Readout type: IC50 (nM)
Respond numerically; units are nM and should not be typed.

Find the measured IC50 of CCCNC(=O)[C@H]1O[C@@H]1C(=O)N[C@H](C(=O)N1CCC[C@H]1C(=O)O)[C@@H](C)CC and report it.
57400

* * *

Target: cathepsin B (Homo sapiens)
Construct: purchased Sigma Chemical Co
Assay: Inhibitory Activity against Cathepsin B
Type: biochemical
Conditions: pH 6.0, 40° C., preincubated 3 minutes, incubation 10 minutes, substrate benzyloxycarbonyl-L-phenylalanyl-L-arginine 4-methylcoumaryl-7-amide
Readout type: IC50
Put down the number, then write its unit next to it.

Entry CCCCCNC(=O)[C@H]1O[C@@H]1C(=O)N[C@H](C(=O)N1CCC[C@H]1C(=O)O)[C@@H](C)CC needs its IC50 filled in; supply it.
32 nM
